Recorded values, source patent US8383581B2.

target or test system: T1, rat PTH-1R (rat PTHR endogenously expressed on UMR-106 rat osteosarcoma cells) (rat, UniProt P25961 27-591)
T1 sequence (looked up): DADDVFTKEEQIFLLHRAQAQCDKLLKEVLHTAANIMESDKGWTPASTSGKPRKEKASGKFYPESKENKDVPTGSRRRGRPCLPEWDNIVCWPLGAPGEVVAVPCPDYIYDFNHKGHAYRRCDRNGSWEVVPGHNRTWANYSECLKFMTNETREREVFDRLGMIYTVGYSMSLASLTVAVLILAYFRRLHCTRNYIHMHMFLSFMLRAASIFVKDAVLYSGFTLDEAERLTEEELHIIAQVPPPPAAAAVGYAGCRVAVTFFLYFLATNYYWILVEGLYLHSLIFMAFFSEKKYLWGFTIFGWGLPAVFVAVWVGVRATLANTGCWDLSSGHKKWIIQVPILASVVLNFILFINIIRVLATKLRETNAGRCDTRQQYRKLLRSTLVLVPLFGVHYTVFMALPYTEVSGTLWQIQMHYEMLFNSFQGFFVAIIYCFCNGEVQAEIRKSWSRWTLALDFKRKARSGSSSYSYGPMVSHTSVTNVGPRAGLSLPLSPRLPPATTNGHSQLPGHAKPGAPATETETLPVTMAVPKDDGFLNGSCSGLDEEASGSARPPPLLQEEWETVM
protocol notes: cell-based or functional assay
*1 amine or outer side, *2 acyl side, *3 side chain or, on linkers, in order; H or OH if unused. Where no end group is shown, it is not given here. [ ]: non-standard residue; d: D form. The star is where a group is joined. αMe‑APPA = 2-amino-2-methyl-5-phenylpentanoic acid, C[C@@](CCCc1ccccc1)(N[*:1])C(=O)[*:2]; Bip(2'-Et-4'-OMe) = CCc1cc(OC)ccc1-c1ccc(C[C@H](N)C(=O)O)cc1; Arg(NO2) = N=C(NCCC[C@H](N)C(=O)O)N[N+](=O)[O-]; αMePhe(2,6-F2) = C[C@](N)(Cc1c(F)cccc1F)C(=O)O; αMePhe(2-F) = C[C@](N)(Cc1ccccc1F)C(=O)O; αMeW = C[C@](N)(Cc1c[nH]c2ccccc12)C(=O)O; αMe‑Bip(OMe) = α-methylated Bip(OMe); hhPhe = N[C@@H](CCCc1ccccc1)C(=O)O; hArg = N=C(N)NCCCC[C@H](N)C(=O)O; hCit = NC(=O)NCCCC[C@H](N)C(=O)O; αMeF = C[C@](N)(Cc1ccccc1)C(=O)O; Cit = NC(=O)NCCC[C@H](N)C(=O)O; αMeV = CC(C)[C@](C)(N)C(=O)O; αMeM = CSCC[C@](C)(N)C(=O)O; αMeP = C[C@@]1(C(=O)O)CCCN1; Decanoyl = CCCCCCCCCC(=O)*; Ac6c = NC1(C(=O)O)CCCCC1; Nle = CCCC[C@H](N)C(=O)O; Ac5c = NC1(C(=O)O)CCCC1; Ac3c = NC1(C(=O)O)CC1; Aib = CC(C)(N)C(=O)O
parameter measured: cAMP released with respect to control, 100 nM peptide, UMR-106 cells

Kindly note the recorded cAMP released with respect to control, 100 nM peptide, UMR-106 cells for [αMeV][Ac5c]V[Aib]EIQL[αMeM]HQ[hArg]A[hArg][αMeW][αMe‑APPA] [Seq. ID. 954] , which is 116 percent of control

[Aib]V[Aib]EIQ[αMePhe(2,6-F2)][Nle]HQ[hCit]A[Arg(NO2)][αMePhe(2-F)] [Seq. ID. 461] yielded cAMP released with respect to control, 100 nM peptide, UMR-106 cells of 126 percent of control

Reported cAMP released with respect to control, 100 nM peptide, UMR-106 cells of [Aib]V[Ac6c]EIQL[Nle]HQ[hArg][Aib]K[αMeF] [Seq. ID. 23] : 69 percent of control

Value of cAMP released with respect to control, 100 nM peptide, UMR-106 cells reported for the binder [Ac5c]V[Aib]EIQL[Nle]HQ[hCit]A[Cit][Bip(2'-Et-4'-OMe)][hhPhe] [Seq. ID. 781] is 75 percent of control

Noted for [Ac3c]V[Aib]EIQL[Nle]HQ[hArg][Aib]K[αMeF] [Seq. ID. 15] : its cAMP released with respect to control, 100 nM peptide, UMR-106 cells reads 99 percent of control

// cAMP released with respect to control, 100 nM peptide, UMR-106 cells lookup, binder = [Aib]V[Aib]EIQ[αMePhe(2,6-F2)][Nle]HQ[hCit][Aib][αMePhe(2,6-F2)][Bip(2'-Et-4'-OMe)][hhPhe] [Seq. ID. 872] , result: 59 percent of control

# cAMP released with respect to control, 100 nM peptide, UMR-106 cells of [Aib]V[Aib]EIQL[Nle]HQ[hArg]A[hArg][αMe‑Bip(OMe)][hhPhe] [Seq. ID. 899] = 120 percent of control

Briefly, cAMP released with respect to control, 100 nM peptide, UMR-106 cells measured for [Aib]V[Aib]EIQ[αMePhe(2-F)][Nle]HQ[hCit][Aib][Cit][αMePhe(2,6-F2)] [Seq. ID. 418] : 69 percent of control

So for [Ac5c]V[Ac3c]EIQL[Nle]HQ[hArg]AK(Decanoyl)[Bip(2'-Et-4'-OMe)][hhPhe] [Seq. ID. 637] , the logged cAMP released with respect to control, 100 nM peptide, UMR-106 cells turned out to be 110 percent of control

The reported value for [Aib]V[Ac5c]EIQ[αMePhe(2,6-F2)][Nle]HQ[hArg][αMeP]K[αMePhe(2-F)] [Seq. ID. 78] in terms of cAMP released with respect to control, 100 nM peptide, UMR-106 cells is 93 percent of control

// sample [Ac5c]V[Ac5c]EIQ[αMePhe(2,6-F2)][Nle]HQ[hArg][Aib][αMePhe(2,6-F2)][αMePhe(2,6-F2)] [Seq. ID. 238] , its cAMP released with respect to control, 100 nM peptide, UMR-106 cells was 120 percent of control
